Provenance of the data: PubChem BioAssay (NCI)

# Test system: OVCAR-3 ovarian
# assay: NCI-60 one-dose screen, 48 h
# test settings: 10 µM unless noted
About 83,000 compounds went through this panel and 20% of them were active in at least one assay; those are over-represented in the sample as a whole. Calls of active or inactive are those of the source. The calls were made as follows: active = growth percent below 10; inactive = the rest.
Outcomes: active, inactive

[[record]]
molecule = "Cc1cccc(CNc2c3ccccc3nc3ccccc23)c1"
assayed_target = "OVCAR-3 ovarian"
classification = "inactive"

[[record]]
molecule = "O=S(=O)(NCCNc1nccc(-c2c(-c3ccc(F)c(O)c3)nc3occn23)n1)c1ccc(Cl)cc1"
assayed_target = "OVCAR-3 ovarian"
classification = "inactive"

[[record]]
molecule = "COC(=O)c1c(C)c2n(c1C)C(=O)C(c1ccccc1)=C2"
assayed_target = "OVCAR-3 ovarian"
classification = "inactive"

[[record]]
molecule = "Cc1ccc(C2=Nc3c(N)ncnc3NC(c3cccc(Nc4ccnc5cc(C(F)(F)F)ccc45)c3)C2)cc1 (stereo unspecified)"
assayed_target = "OVCAR-3 ovarian"
classification = "inactive"

[[record]]
molecule = "CCCc1c(OC(=O)c2ccccc2)nc2[nH]c(=O)sc2c1C"
assayed_target = "OVCAR-3 ovarian"
classification = "inactive"

[[record]]
molecule = "CC(C)=CCC[C@](C)(O)[C@H]1CC[C@]2(C)[C@@H]1CC[C@@H]1[C@@]3(C)C/C(=C/c4ccco4)C(=O)C(C)(C)[C@@H]3CC[C@]12C"
assayed_target = "OVCAR-3 ovarian"
classification = "inactive"

[[record]]
molecule = "COc1cc2c(c(OC)c1OC)CCC(c1cccc(C(=O)Nc3cccc(Cl)c3)c1)O2 (stereo unspecified)"
assayed_target = "OVCAR-3 ovarian"
classification = "inactive"

[[record]]
molecule = "COc1cc(OC)c(NC(=O)c2cc3ccccc3cc2O)cc1Cl"
assayed_target = "OVCAR-3 ovarian"
classification = "active"

[[record]]
molecule = "Cc1ccc2c(n1)C(=O)C(Br)=C(CC(C)C)C2=O"
assayed_target = "OVCAR-3 ovarian"
classification = "inactive"

[[record]]
molecule = "C=C1C(=O)O[C@H]2[C@H]1CC/C(COC(=O)NCc1ccc(Cn3c(=O)sn(CCCCC)c3=O)cc1)=C\\CC[C@@]1(C)O[C@@H]21"
assayed_target = "OVCAR-3 ovarian"
classification = "active"

[[record]]
molecule = "COc1cc(/C=C2/C=C(c3ccccc3)N(CCc3ccc(S(N)(=O)=O)cc3)C2=O)cc(OC)c1OC"
assayed_target = "OVCAR-3 ovarian"
classification = "inactive"

[[record]]
molecule = "CCN(CC)c1ccc(\\C=N/N=C(N)/C(N)=N\\N=C/c2ccc(N(CC)CC)cc2)cc1"
assayed_target = "OVCAR-3 ovarian"
classification = "inactive"

[[record]]
molecule = "COc1ccc(-c2cc(-c3cccnc3)nc3sc4c(=O)[nH]c(-c5ccc(Cl)cc5)nc4c23)cc1OC"
assayed_target = "OVCAR-3 ovarian"
classification = "inactive"

[[record]]
molecule = "Cc1c(O)cc(-c2cnc(Nc3ccccc3)s2)c(O)c1C"
assayed_target = "OVCAR-3 ovarian"
classification = "inactive"

[[record]]
molecule = "Cc1cn(-c2cc(NC(=O)c3cccc(C#Cc4cccc5[nH]nc(N)c45)c3)cc(C(F)(F)F)c2)cn1"
assayed_target = "OVCAR-3 ovarian"
classification = "inactive"

[[record]]
molecule = "Cc1ccc(Nn2c(SCC(=O)Nc3nc(-c4ccccc4)cs3)nc(C)c2C)cc1"
assayed_target = "OVCAR-3 ovarian"
classification = "inactive"

[[record]]
molecule = "CCSc1oc(-c2ccccc2)nc1[P+](c1ccccc1)(c1ccccc1)c1ccccc1"
assayed_target = "OVCAR-3 ovarian"
classification = "active"

[[record]]
molecule = "COc1cc2nc3cc([N+](=O)[O-])ccc3c(NCCNCC(C)O)c2cc1OC (stereo unspecified)"
assayed_target = "OVCAR-3 ovarian"
classification = "active"

[[record]]
molecule = "CC/C(=C(/c1ccc(Cl)cc1)c1ccc(OCCN2CCCCC2)cc1)c1ccc(OC)cc1"
assayed_target = "OVCAR-3 ovarian"
classification = "inactive"

[[record]]
molecule = "O=C(Nc1ccc(Oc2cccc(Cl)c2)c(Cl)c1)c1cccnc1"
assayed_target = "OVCAR-3 ovarian"
classification = "active"

[[record]]
molecule = "CC(=O)Oc1ccc(C)cc1C"
assayed_target = "OVCAR-3 ovarian"
classification = "inactive"

[[record]]
molecule = "O=C(/C=C(/C=C/c1ccc2[nH]ccc2c1)OB(F)F)/C=C/c1ccc2[nH]ccc2c1"
assayed_target = "OVCAR-3 ovarian"
classification = "active"

[[record]]
molecule = "Cc1cc(C(=O)O)c(C)n1-c1cccc(C(=O)O)c1"
assayed_target = "OVCAR-3 ovarian"
classification = "inactive"

[[record]]
molecule = "O=S(=O)(NCCNc1nccc(-c2c(-c3ccc(F)c(O)c3)nc3sccn23)n1)c1ccc(O)cc1"
assayed_target = "OVCAR-3 ovarian"
classification = "inactive"

[[record]]
molecule = "COc1ccc(OC)c(/C=N/Nc2ncnc3c2c(C)nn3C)c1"
assayed_target = "OVCAR-3 ovarian"
classification = "inactive"

[[record]]
molecule = "CCc1ncnc2c1ccn2C(C)c1ccc(OC)c(F)c1 (stereo unspecified)"
assayed_target = "OVCAR-3 ovarian"
classification = "inactive"

